Molecular target: aldose reductase (Bos taurus, UniProt P16116)
Construct: The enzyme is extracted from beef crystalline lens; from tissue; host or cells: beef crystalline lens
Assay: Inhibition of aldose reductase in vitro (reduction of glyceraldehyde to glycerol, spectrophotometric NADPH determination)
Assay type: biochemical
Settings: enzyme from beef crystalline lens; substrate glyceraldehyde; read-out: log 1/CI50 (CI50 = concentration in mole/l resulting in 50% inhibition of the enzymatic activity) (converted)
measure: IC50 (nM)

Example entries and their recorded answers appear below.
smiles_str=CCCc1c(-c2ccc(C(=O)O)cc2)oc2cc(S(=O)(=O)N(C)C)ccc2c1=O study_target="aldose reductase (Bos taurus, UniProt P16116)" numeric_value=2000
smiles_str=CCCc1c(-c2ccc(C(=O)O)cc2)oc2cc(S(=O)(=O)NC)ccc2c1=O study_target="aldose reductase (Bos taurus, UniProt P16116)" numeric_value=1260

[a] CCc1c(-c2ccc(C(=O)O)cc2)oc2cc(NC(C)=O)ccc2c1=O
[b] CCCc1c(-c2ccc(C(=O)O)cc2)oc2cc(S(=O)(=O)N(C)CCO)ccc2c1=O
[c] CC(=O)Nc1ccc2c(=O)cc(-c3ccc(C(=O)O)cc3)oc2c1
[d] COC(=O)c1ccc(-c2oc3cc(NS(C)(=O)=O)ccc3c(=O)c2OS(C)(=O)=O)cc1
# input List these items ordered by IC50, big to small. Your answer should be the labels, listed in the requested order.
# output c, a, b, d

====

Test: Toxicity in mice
Format: in vivo
Conditions: mouse, in vivo, ip, intraperitoneally, 500 mg/kg
measure: mortality (%)
Express the result in % but write the number alone.

# input Given CCCc1c(-c2ccc(C(=O)O)cc2)oc2cc(NS(C)(=O)=O)ccc2c1=O [COR 35 01] , state its recorded mortality.
# output 20

The values you see were collected from patent US4600788A.
